Source listed as PubChem BioAssay (NCI).

TGI: recorded values
# System: HT29 colon
# Test Summary: NCI tumour cell line growth inhibition, 48 h
Metric Name: TGI (µM)

Compound: C=C1C(=O)O[C@H]2[C@@H]3O[C@@](C)(CC/C=C(\C)CCC[C@@H]2C)[C@H](O)C[C@@H]13
Operator Symbol: =
Readout Value: 3.94
--
Compound: NS(=O)(=O)c1ccc(NNc2c3ccccc3nc3c(C(=O)Nc4ccc(S(N)(=O)=O)cc4)cccc23)cc1
Operator Symbol: =
Readout Value: 72.4
--
Compound: Cc1ccc(CNc2ccc(Cl)cc2NCc2ccc(C)c(O)c2)cc1O
Operator Symbol: =
Readout Value: 17.9
--
Compound: COc1cc(/C=C2\C(=O)Nc3ccc(O)cc32)cc(OC)c1OC
Operator Symbol: =
Readout Value: 25.3
--
Compound: O=c1[nH]c2c(ccc3cnccc32)c2c1CCC2
Operator Symbol: >
Readout Value: 100
--
Compound: C/C(=C\COP(=O)(O)CP(=O)(O)O)CC/C=C(\C)CNc1ccccc1
Operator Symbol: >
Readout Value: 100
--
Compound: COc1cc(CCNC2=CC(=O)c3ncccc3C2=O)ccc1O
Operator Symbol: =
Readout Value: 28.4
--
Compound: CC(=O)OCC1OC(Sc2nc(-c3ccccc3)c(C#N)c(=O)n2C2OC(COC(C)=O)C(OC(C)=O)C(OC(C)=O)C2OC(C)=O)C(OC(C)=O)C(OC(C)=O)C1OC(C)=O (stereo not drawn)
Operator Symbol: >
Readout Value: 100
--
Compound: COc1cc(F)c(F)c(F)c1C(=O)c1cnc(NC2CCN(S(C)(=O)=O)CC2)nc1N
Operator Symbol: =
Readout Value: 15.2
--
Compound: CCOC(=O)c1sc(N)nc1N1CCCC1
Operator Symbol: >
Readout Value: 100
--
Compound: COC(=O)c1nc2n(n1)-c1ccccc1C(=O)N(Cc1ccccc1)C2
Operator Symbol: >
Readout Value: 100
--
Compound: CC(C)C1CC(CO)(CNc2nc(N)nc(Cl)c2C=O)C1 (stereo not drawn)
Operator Symbol: =
Readout Value: 6.42
--
Compound: CC(=O)Nc1ccc(/C=C/C(=O)c2sc(-n3nc(-c4ccccc4)cc3-c3ccccc3)nc2C)cc1
Operator Symbol: >
Readout Value: 100
--
Compound: O=c1c2cc(F)ccc2sc2c(NCCCNCCO)nc3ccc(F)cc3c12
Operator Symbol: =
Readout Value: 3.74
--
Compound: C[C@@H](NC(=O)Nc1cccc(C(=O)Nc2cc(C(C)(C)C)ccc2C(=O)O)n1)c1ccccc1
Operator Symbol: >
Readout Value: 100
--
Compound: O=C(Nc1cc(Cl)ccc1Cl)c1cc2ccccc2oc1=O
Operator Symbol: >
Readout Value: 100
--
Compound: C[C@H]1CC(=O)C[C@@H]2CC[C@@H]3[C@H](CC[C@]4(C)C(OC(=O)c5cccc6c(=O)c7ccccc7[nH]c56)CC[C@@H]34)[C@]21C (stereo partly drawn)
Operator Symbol: >
Readout Value: 100
--
Compound: O=C(O)c1ccc2nc(-c3ccccn3)c(-c3ccccn3)nc2c1
Operator Symbol: >
Readout Value: 100
